testedTarget: W1282X-CFTR (Homo sapiens, UniProt P13569)
Construct: CFTR1281 (the truncation product generated by W1282X-CFTR); expressed in transfected cells
Sequence (P13569 1-1281 limits assumed): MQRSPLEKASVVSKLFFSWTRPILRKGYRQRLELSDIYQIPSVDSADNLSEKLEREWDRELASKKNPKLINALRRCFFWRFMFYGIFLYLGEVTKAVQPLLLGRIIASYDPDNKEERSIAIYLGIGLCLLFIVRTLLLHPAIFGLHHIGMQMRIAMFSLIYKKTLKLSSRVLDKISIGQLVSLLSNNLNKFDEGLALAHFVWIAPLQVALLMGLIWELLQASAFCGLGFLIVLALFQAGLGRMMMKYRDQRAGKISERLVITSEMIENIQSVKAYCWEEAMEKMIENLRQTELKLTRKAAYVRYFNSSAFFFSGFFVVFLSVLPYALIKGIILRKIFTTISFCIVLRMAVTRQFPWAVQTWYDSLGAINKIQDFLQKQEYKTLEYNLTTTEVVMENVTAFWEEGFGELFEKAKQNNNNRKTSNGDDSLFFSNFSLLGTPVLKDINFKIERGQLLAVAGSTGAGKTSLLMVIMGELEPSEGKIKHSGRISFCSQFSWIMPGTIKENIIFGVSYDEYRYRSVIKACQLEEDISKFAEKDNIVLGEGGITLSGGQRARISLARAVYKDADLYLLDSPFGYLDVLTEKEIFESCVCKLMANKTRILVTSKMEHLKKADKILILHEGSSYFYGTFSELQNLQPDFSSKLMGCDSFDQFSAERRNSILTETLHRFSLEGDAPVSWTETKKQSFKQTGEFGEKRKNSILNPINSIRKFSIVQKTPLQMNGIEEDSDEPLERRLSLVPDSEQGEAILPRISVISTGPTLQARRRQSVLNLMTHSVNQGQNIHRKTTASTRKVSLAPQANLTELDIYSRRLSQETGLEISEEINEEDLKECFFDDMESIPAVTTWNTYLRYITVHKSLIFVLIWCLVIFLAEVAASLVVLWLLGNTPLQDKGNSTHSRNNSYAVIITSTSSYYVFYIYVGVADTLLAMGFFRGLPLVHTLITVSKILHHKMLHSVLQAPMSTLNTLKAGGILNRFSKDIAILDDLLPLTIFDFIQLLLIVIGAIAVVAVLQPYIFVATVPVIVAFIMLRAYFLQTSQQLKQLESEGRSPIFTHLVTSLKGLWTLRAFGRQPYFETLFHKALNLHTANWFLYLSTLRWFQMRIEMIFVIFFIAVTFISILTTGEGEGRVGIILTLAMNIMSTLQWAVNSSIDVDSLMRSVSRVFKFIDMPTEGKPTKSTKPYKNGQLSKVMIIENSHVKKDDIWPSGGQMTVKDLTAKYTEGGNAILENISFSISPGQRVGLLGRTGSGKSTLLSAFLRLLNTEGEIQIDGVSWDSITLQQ
assayText: Structure-activity testing of co-potentiator analogs in FRT cells expressing W1282X-CFTR
Type: cell-based
runParameters: Table 1A; 100% Vmax corresponds to 20 μM ASP-11
metric: Relative Vmax (%)*

Recorded Relative Vmax (%)*, per entry:
c1ccc(CN2CCC3(CC2)NCCc2c3[nH]c3ccccc23)cc1	31
COc1ccc2[nH]c3c(c2c1)CCNC31CCN(C)CC1	6
CCC(=O)N1CCC2(CC1)NCCc1c2[nH]c2ccc(OC)cc12	7
COc1ccc2[nH]c3c(c2c1)CCNC31CCN(Cc2ccc(F)cc2F)CC1	100
COc1cccc(CN2CCC3(CC2)NCCc2c3[nH]c3ccccc23)c1	24

1. COc1cccc(CN2CCC3(CC2)NCCc2c3[nH]c3ccc(OC)cc23)c1
2. COc1ccc2[nH]c3c(c2c1)CCNC31CCN(C2CCCCC2)CC1
3. COc1ccc2[nH]c3c(c2c1)CCNC31CCN(C(=O)Cc2ccccc2)CC1
4. O=C(c1ccccc1)N1CCC2(CC1)NCCc1c2[nH]c2ccccc12
q: Rank descending by Relative Vmax (%)*. Order the labels as requested and give them as your answer.
a: 1, 2, 3, 4

====

testedTarget: N1303K-CFTR (Homo sapiens, UniProt P13569, N1303K)
Sequence (P13569 whole entry N1303K): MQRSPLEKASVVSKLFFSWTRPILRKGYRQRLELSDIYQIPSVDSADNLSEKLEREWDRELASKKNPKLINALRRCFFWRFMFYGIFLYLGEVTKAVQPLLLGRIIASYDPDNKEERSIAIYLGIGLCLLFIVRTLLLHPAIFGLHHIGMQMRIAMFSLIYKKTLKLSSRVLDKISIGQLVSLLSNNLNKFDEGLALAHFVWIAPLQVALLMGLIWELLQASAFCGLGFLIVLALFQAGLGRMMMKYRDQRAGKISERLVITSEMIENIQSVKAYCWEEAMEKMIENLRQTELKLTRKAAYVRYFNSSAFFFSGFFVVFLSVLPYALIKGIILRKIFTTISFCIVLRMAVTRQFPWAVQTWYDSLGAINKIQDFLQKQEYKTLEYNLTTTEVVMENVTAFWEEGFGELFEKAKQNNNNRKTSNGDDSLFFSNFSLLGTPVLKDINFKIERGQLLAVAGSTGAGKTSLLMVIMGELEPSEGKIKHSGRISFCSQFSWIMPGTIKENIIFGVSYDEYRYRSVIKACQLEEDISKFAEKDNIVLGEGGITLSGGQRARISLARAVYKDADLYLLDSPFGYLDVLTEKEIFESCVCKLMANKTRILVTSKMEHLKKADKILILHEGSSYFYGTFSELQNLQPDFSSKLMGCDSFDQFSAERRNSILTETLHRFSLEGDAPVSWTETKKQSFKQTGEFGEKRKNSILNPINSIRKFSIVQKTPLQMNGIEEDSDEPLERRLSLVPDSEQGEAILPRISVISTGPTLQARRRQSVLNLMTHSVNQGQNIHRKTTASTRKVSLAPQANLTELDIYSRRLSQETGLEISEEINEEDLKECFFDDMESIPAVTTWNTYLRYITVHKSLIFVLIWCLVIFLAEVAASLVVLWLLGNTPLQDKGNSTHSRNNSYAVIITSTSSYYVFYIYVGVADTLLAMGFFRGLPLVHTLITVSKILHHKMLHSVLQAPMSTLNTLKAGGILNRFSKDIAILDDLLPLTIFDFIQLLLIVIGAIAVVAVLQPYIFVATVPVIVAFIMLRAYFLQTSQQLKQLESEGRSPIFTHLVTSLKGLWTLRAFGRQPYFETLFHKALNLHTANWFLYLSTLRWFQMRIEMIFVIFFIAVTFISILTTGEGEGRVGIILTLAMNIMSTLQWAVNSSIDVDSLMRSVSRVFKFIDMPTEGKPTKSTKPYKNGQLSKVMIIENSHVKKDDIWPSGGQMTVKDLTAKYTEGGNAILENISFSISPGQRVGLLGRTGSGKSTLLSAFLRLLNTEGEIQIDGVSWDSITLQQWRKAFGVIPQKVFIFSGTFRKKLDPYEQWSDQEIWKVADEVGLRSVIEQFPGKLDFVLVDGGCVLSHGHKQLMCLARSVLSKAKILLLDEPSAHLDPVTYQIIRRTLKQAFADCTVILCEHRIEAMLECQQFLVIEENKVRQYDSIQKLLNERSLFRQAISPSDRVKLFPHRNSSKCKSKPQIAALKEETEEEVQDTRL
assayText: Short-circuit current in FRT cells expressing N1303K-CFTR
Assay type: cell-based
Design: expressed in transfected cells; host or cells: Fischer rat thyroid (FRT) cells
runParameters: Table 1B; footnote to * not given
metric: Relative Vmax (%)*

Fc1ccc(CN2CCC3(CC2)NCCc2c3[nH]c3ccc(Cl)cc23)c(F)c1 [Compound 5c]	89
COc1ccc2[nH]c3c(c2c1)CCNC31CCN(Cc2ccc(F)c(F)c2F)CC1 [Compound 2g]	100
COc1ccc2[nH]c3c(c2c1)CCNC31CCN(Cc2cc(F)c(F)c(F)c2)CC1 [Compound 2d]	121
COc1ccc2c3c([nH]c2c1)C1(CCN(Cc2ccc(F)cc2F)CC1)NCC3 [Compound 5d]	100
COc1ccc2[nH]c3c(c2c1)CCNC31CCN(Cc2cc(F)c(F)cc2F)CC1 [Compound 2i]	97
COc1ccc2[nH]c3c(c2c1)CCNC31CCN(Cc2c(F)c(F)c(F)c(F)c2F)CC1 [Compound 2e]	134
COc1ccc2[nH]c3c(c2c1)CCNC31CCN(Cc2ccc(F)c(Cl)c2F)CC1 [Compound 1j]	120

====

testedTarget: W1282X-CFTR (Homo sapiens, UniProt P13569)
Construct: CFTR1281 (the truncation product generated by W1282X-CFTR); expressed in transfected cells
assayText: Structure-activity testing of co-potentiator analogs in FRT cells expressing W1282X-CFTR
Assay type: cell-based
runParameters: Table 2; 100% Vmax corresponds to 20 μM ASP-11
metric: Relative Vmax (%)*

Recorded Relative Vmax (%)*, per entry:
COc1ccc2cc3c(N)nn(C(=O)c4ccc([N+](=O)[O-])cc4Cl)c3nc2c1	100
COc1ccc2cc3c(N)nn(C(=O)Cc4ccc([N+](=O)[O-])cc4)c3nc2c1 [Compound D086]	3
COc1ccc2cc3c(N)nn(C(=O)c4ccccc4Cl)c3nc2c1	90
Cc1ccc2cc3c(N)nn(C(=O)c4ccc(F)cc4)c3nc2c1	11

I. COc1ccc2cc3c(N)nn(C(=O)c4cc(OC)c(OC)c(OC)c4)c3nc2c1
II. COc1ccc2cc3c(N)nn(C(=O)c4ccc(Cl)c([N+](=O)[O-])c4)c3nc2c1
III. COc1ccc2cc3c(N)nn(C(=O)c4cc(-c5cccs5)nc5ccccc45)c3nc2c1
IV. COc1ccc2cc3c(N)nn(C(=O)c4ccc(F)cc4)c3nc2c1
q: Rank descending by Relative Vmax (%)*. Order the labels as requested and give them as your answer.
a: III, IV, II, I

====

testedTarget: N1303K-CFTR (Homo sapiens, UniProt P13569, N1303K)
assayText: Short-circuit current in FRT cells expressing N1303K-CFTR
Format: cell-based
Parameters: expressed in transfected cells; host or cells: Fischer rat thyroid (FRT) cells
runParameters: 20 μM forskolin, 5 μM VX-770; cells corrected with 3 μM VX-661
Procedure: Short-circuit current was measured on cells cultured on permeable supports (Corning) as described (Haggie, 2017; Phuan, 2018). […] GraphPad Prism software (GraphPad Inc., San Diego, Calif., USA) was used for statistical analysis. EC50 values were determined by non-linear regression to a single-site inhibition model. Statistical significance was determined using unpaired Student's t test, with P<0.05 considered significant. […]
metric: pEC50
# pEC50 is unitless: minus log10 of the molar concentration; print number only

Given item `COc1ccc2[nH]c3c(c2c1)CCNC31CCN(Cc2cc(F)c(F)cc2F)CC1` , the value recorded as its pEC50 is 6.22

====

testedTarget: Q1313X-CFTR (Homo sapiens, UniProt P13569)
Construct: several truncated forms of CFTR resulting from premature termination codons (PTCs) located in NBD2; expressed in transfected cells; host or cells: FRT cells, pIRESpuro3 vector, puromycin-selected clonal lines
Sequence (P13569 1-1312 limits assumed): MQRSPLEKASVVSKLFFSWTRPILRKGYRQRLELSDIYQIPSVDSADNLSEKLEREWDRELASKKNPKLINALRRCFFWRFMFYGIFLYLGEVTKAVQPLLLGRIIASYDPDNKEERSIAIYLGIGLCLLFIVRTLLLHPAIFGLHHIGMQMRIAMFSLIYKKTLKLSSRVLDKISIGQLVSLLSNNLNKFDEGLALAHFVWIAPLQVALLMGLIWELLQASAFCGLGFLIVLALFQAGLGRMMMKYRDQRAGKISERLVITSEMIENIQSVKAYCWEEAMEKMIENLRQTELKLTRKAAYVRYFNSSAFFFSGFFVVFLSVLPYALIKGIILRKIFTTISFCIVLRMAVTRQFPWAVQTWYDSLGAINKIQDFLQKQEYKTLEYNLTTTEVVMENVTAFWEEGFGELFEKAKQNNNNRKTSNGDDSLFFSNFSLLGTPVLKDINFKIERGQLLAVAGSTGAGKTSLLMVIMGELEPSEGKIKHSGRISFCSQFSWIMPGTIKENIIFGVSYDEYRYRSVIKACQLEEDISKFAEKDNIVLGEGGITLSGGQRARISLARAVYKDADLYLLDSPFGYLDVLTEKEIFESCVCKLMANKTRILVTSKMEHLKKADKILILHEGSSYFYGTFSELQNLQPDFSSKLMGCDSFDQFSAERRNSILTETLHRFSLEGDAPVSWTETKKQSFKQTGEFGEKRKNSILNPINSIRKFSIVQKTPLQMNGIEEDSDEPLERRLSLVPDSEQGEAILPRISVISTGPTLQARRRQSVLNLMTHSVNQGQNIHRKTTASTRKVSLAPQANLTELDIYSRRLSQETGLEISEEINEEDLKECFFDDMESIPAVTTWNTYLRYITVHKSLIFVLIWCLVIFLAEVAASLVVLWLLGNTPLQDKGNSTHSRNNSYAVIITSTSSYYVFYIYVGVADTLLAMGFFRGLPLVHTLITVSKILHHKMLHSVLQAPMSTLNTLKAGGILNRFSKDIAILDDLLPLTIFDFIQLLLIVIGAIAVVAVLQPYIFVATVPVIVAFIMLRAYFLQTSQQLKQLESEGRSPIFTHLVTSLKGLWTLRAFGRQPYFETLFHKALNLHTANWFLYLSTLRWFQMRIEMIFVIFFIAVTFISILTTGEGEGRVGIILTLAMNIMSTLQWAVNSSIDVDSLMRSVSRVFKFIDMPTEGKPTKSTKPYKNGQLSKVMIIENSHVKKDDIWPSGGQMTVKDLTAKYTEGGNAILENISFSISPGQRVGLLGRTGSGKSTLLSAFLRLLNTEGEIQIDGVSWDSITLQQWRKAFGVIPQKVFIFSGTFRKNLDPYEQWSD
assayText: Short-circuit current in FRT cells expressing Q1313X-CFTR
Assay type: cell-based
runParameters: following forskolin and VX-770
pEC50: −log10 of the molar value.
metric: pEC50

P. COc1ccc2[nH]c3c(c2c1)CCNC31CCN(Cc2ccc(F)cc2F)CC1 [Compound A061]
Q. COc1ccc2cc3c(N)nn(C(=O)c4cc(-c5cccs5)nc5ccccc45)c3nc2c1 [Compound D123]
q: Name the one with the greater pEC50 value, either P or Q as given. Select an item and report its label.
a: Q

====

testedTarget: W1282X-CFTR (Homo sapiens)
Construct: CFTR1281 (the truncation product generated by W1282X-CFTR); expressed in transfected cells
assayText: Structure-activity testing of co-potentiator analogs in FRT cells expressing W1282X-CFTR
Format: cell-based
runParameters: Table 1A; 100% Vmax corresponds to 20 μM ASP-11
metric: Relative Vmax (%)*

Recorded Relative Vmax (%)*, per entry:
COc1ccc2[nH]c3c(c2c1)CCNC31CCN(S(C)(=O)=O)CC1 [Compound A145]	7
COc1ccc2[nH]c3c(c2c1)CCNC31CCN(Cc2scnc2C)CC1 [Compound A666]	91

P. COc1ccc2[nH]c3c(c2c1)CCNC31CCN(Cc2ccc(F)c(F)c2)CC1 [Compound A662]
Q. COc1cccc(CN2CCC3(CC2)c2[nH]c4ccccc4c2CCN3C)c1 [Compound A600]
q: Name the one with the greater Relative Vmax (%)* value, either P or Q as given. Select an item and report its label.
a: P

====

testedTarget: W1282X-CFTR (Homo sapiens)
Construct: CFTR1281 (the truncation product generated by W1282X-CFTR); expressed in transfected cells
assayText: Structure-activity testing of co-potentiator analogs in FRT cells expressing W1282X-CFTR
Assay type: cell-based
runParameters: Table 1A; FRT cells expressing W1282X-CFTR; read-out: EC50 (μM))
Procedure: To establish structure-activity relationships, 240 commercially available spiro[piperidine-4,1pyrido[3,4-b]indoles]analogs and 160 pyrazoloquinoline analogs were tested in FRT cells expressing W 1282X-CFTR. […] High-throughput screening used a semi-automated screening platform (Beckman, Fullerton, Calif.) as described (Haggie, 2017). […] Initial iodide influx was computed from fluorescence intensity by single exponential regression. […]
metric: EC50 (µM)

COc1ccc2[nH]c3c(c2c1)CCNC31CCN(Cc2ccc(F)cc2F)CC1	2
c1ccc(CN2CCC3(CC2)NCCc2c3[nH]c3ccccc23)cc1	16
COc1cccc(CN2CCC3(CC2)NCCc2c3[nH]c3ccc(OC)cc23)c1	10

A. COc1cccc(CN2CCC3(CC2)NCCc2c3[nH]c3ccccc23)c1
B. COc1ccc2[nH]c3c(c2c1)CCNC31CCN(Cc2ccc(F)c(F)c2)CC1
C. COc1ccc2[nH]c3c(c2c1)CCNC31CCN(Cc2scnc2C)CC1
q: Ascending by EC50, please: list the compounds accordingly. Order the labels as requested and give them as your answer.
a: B, C, A
(B: 2.6 µM, C: 5.1 µM, A: 13 µM)

====

testedTarget: W1282X-CFTR (Homo sapiens, UniProt P13569)
Construct: CFTR1281 (the truncation product generated by W1282X-CFTR); expressed in transfected cells
assayText: Structure-activity testing of co-potentiator analogs in FRT cells expressing W1282X-CFTR
Format: cell-based
runParameters: Table 2; FRT cells expressing W1282X-CFTR; read-out: EC50
pEC50: −log10 of the molar value.
metric: pEC50

COc1ccc2cc3c(N)nn(C(=O)c4ccc(F)cc4)c3nc2c1	5.44
Cc1ccc2cc3c(N)nn(C(=O)c4ccc(F)cc4)c3nc2c1	4.74
COc1ccc2nc3c(cc2c1)c(N)nn3C(=O)c1ccc([N+](=O)[O-])cc1Cl	5.47

A. COc1ccc2cc3c(N)nn(C(=O)c4cc(-c5cccs5)nc5ccccc45)c3nc2c1
B. COc1ccc2cc3c(N)nn(C(=O)c4ccc([N+](=O)[O-])cc4Cl)c3nc2c1
q: Given the listed items, does A or B have the lesser reported pEC50? Select an item and report its label.
a: B
(B: 5.77, A: 6.52)
